assay: gradient 5% acetonitrile 3 min, to 50% in 2 min, to 85% in 15 min, held 3 min, 100 µL/min; conditions: column: Zorbax Extend-C18 2.1 x 50 mm; eluents: water / acetonitrile, 0.1% formic acid
Endpoint: RP-LC retention time (s)

// solved cases for RP-LC retention time follow
{"columns": ["Compound", "Endpoint", "Recorded number"],
 "data": [
  ["COc1cc(NC(=O)CSc2nc3nc(C)cc(C)n3n2)cc(OC)c1", "RP-LC retention time", 726],
  ["CCN(CC)C(=O)c1ccc2c(c1)N(CC(=O)N1CCC(C)CC1)C(=O)C1CCCCN21 (centres undefined)", "RP-LC retention time", 838],
  ["Cc1ccc(-c2cc(C(=O)N3CCCC3)n(C)c2)cc1", "RP-LC retention time", 965],
  ["COc1ccc(N2CCN(C(=O)c3[nH]c(C)c(S(=O)(=O)N4CCCC4)c3C)CC2)cc1", "RP-LC retention time", 748],
  ["COc1ccc2c(c1)CCc1sc(NC(=O)c3cc(Cl)ccc3OC)nc1-2", "RP-LC retention time", 1270],
  ["O=C1CCN(C(=O)c2cccs2)CCCCCCN1", "RP-LC retention time", 622],
  ["CCN(C(=O)c1cc2c(=O)n(C)c(=O)n(C)c2s1)c1ccc(OC)cc1", "RP-LC retention time", 801]
]}

1: CC(=O)Oc1ccccc1C1=NN(C(C)=O)C(c2ccc(Cl)cc2)O1 (centres undefined)
2: CC(NC(=O)c1ccc2c(c1)OCO2)C(=O)N1CCN(c2ccccn2)CC1 (centres undefined)
Incoming: Quick one: lower RP-LC retention time, 1 or 2 ? Your answer should be the label of the entry you select.
Outgoing: 2
(2: 580 s, 1: 1020 s)

###

assay: gradient 5% acetonitrile 3 min, to 50% in 2 min, to 85% in 15 min, held 3 min, 100 µL/min; conditions: column: Zorbax Extend-C18 2.1 x 50 mm; eluents: water / acetonitrile, 0.1% formic acid
Endpoint: RP-LC retention time (s)

// solved cases for RP-LC retention time follow
{"columns": ["Compound", "Measurement unit", "Recorded number"],
 "data": [
  ["O=C(Nc1ccc(Br)cc1F)C1CCCN(c2nc3ccccc3nc2C(F)(F)F)C1 (stereo unspecified)", "s", 1360],
  ["COc1cc(C(CC(=O)N2CCCC2)N2Cc3ccccc3C2=O)cc(OC)c1OC (stereo unspecified)", "s", 661],
  ["CCOC(=O)c1cc(C)nc2c1c(=O)n(Cc1ccccc1)c(=O)n2C", "s", 879],
  ["CCCc1cc(N2CCN(C(=O)c3ccc4c(c3)OCO4)CC2)nc2nnc(C)n12", "s", 624],
  ["O=C(NCc1ccc2c(c1)OCO2)C(=O)c1cccn1Cc1ccccc1", "s", 980],
  ["COc1cccc(-c2ccnc3nc(-c4ccccc4OC)nn23)c1", "s", 860],
  ["COc1ccc(C(=O)NC2CCN(C(=O)c3cc(-c4ccc(OC)cc4)n[nH]3)CC2)cc1", "s", 729],
  ["CCOc1ccc(-c2nc(-c3ccc4oc(C)nc4c3)no2)cc1OCC", "s", 1170],
  ["CC(=O)N1CCC2(CC1)OC(=O)C(C)=C2C(=O)N1CCc2ccccc2C1", "s", 692],
  ["Clc1ccc(Cl)c(-c2ccc(CNCc3ccco3)o2)c1", "s", 737]
]}

1: CC(C)n1ccc(C(=O)Nc2nnc(-c3cc(Cl)sc3Cl)o2)n1
2: CN(C)c1cc(N2CCCC(NC(=O)c3ccnn3C)C2)ncn1 (stereo unspecified)
Incoming: API: POST /compare with 1 and 2 ; response names the item with higher RP-LC retention time. Your answer should be the label of the entry you select.
Outgoing: 1
